Target Or Test System: FmTARG1 (Fusobacterium mortiferum, UniProt A0ABN5JAQ3)
Construct: gene C4N19_10685; synthetic gene in pSol-AFV, AFV-tag removed with TEV protease; expressed in E. coli 10G
Sequence (A0ABN5JAQ3 2-142 limits assumed): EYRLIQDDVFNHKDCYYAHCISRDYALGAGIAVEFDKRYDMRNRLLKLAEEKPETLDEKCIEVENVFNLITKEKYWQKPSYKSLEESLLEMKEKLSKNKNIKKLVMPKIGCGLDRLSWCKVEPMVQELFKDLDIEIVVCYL
Assay Name: HPLC deacetylation assay
Format: biochemical
Measurement Conditions: competitive against OAADPr; Bis-Tris pH 7.3, 300 mM NaCl, 25 °C
pKi: −log10 of the molar value.

{"columns": ["Compound", "Target Or Test System", "pKi"],
 "data": [
  ["Nc1ncnc2c1ncn2[C@@H]1O[C@H](COP(=O)(O)OP(=O)(O)OC[C@H]2OC(O)[C@H](O)[C@@H]2O)[C@@H](O)[C@H]1O (stereo partly shown) [ADPr]", "FmTARG1 (Fusobacterium mortiferum, UniProt A0ABN5JAQ3)", 3.69]
]}
